# Measurement target: T1, human SIRPβ isoform 1 (human, UniProt O00241 30-148)
# T1 construct: also called Beta; Human SIRPb
# T1 sequence (O00241 30-148 limits assumed): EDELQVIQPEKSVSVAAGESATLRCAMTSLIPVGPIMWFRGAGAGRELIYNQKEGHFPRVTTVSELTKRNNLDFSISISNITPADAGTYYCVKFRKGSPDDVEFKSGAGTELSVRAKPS
# Protocol description: SPR Koff +/-
Observation type: binding result

{"Binder": "antibody 118 (antibody, V domains shown, also called S118) VH: VQLVESGGGVVRPGESLRLSCAASGFSFSSYAMNWVRQAPGEGLEWVSRINSGGGGTDYAESVKGRFTISRDNSENTLYLQMNSLRAEDTAVYYCAKQYDWNGFFDYWGLGALVTVSS VL: ETVLTQSPATLSVSPGERATLSCRASQTVGSKLAWHQQKPGQAPRLLIYDASRRATGIPDRFSGSGSGTDFTLTISSLQTEDSAVYYCQQYYYWPPYRFGGGTKVEIK", "Observation type": "binding result", "Measured result": "binds"}
{"Binder": "antibody 135 (antibody, V domains shown, also called AB135; S135) VH: DVQLVESGGGVVRPGESLRLSCAASGFSFSIYAMSWVRQAPGEGLEWVSTIGADDTYYADSVKGRFTISRDNSKNTLYLQMNSLRAEDTAVYYCAKDSTVGWSGDFFDYWGLGTLVTVSS VL: EIVLTQSPATLSVSPGERVTFSCRASQNVRSDIAWYQQKPGQAPRLLIYAASSRDTGIPDRFSGSGSGTDFTLTISSLQSEDFGVYYCQQYYDWPPFTFGGGTKVEIK", "Observation type": "binding result", "Measured result": "binds"}
{"Binder": "antibody 117 (antibody, V domains shown, also called S117) VH: VQLVESGGGVVRPGESLRLSCAASGFSFSSYAMNWVRQAPGEGLEWVSRINSGGGGTDYAESVKGRFTISRDNSENTLYLQMNSLRAEDTAVYYCAKQYDWNGFFDYWGLGALVTVSS VL: ETVLTQSPATLSVSPGERATLSCRASQTVGSKLAWHQQKPGQAPRLLIYDATNRATGIPDRFSGSGSGTDFTLTISSLQTEDSAVYYCQQYYYWPPYRFGGGTKVEIK", "Observation type": "binding result", "Measured result": "binds"}
